# growth per record follows
Tested on: E. coli TESEC Mtb DapB
TEST_SUMMARY: growth (OD600 after 10 h); higher = more growth (less inhibition)
EXPERIMENTAL_SETUP: arabinose induction (level): High; compound 0.1 mM; raw OD600 reference: median of DMSO wells […], cell-free background 0.041
Where a name gives a salt, the structure may show the parent alone.
No unit in the answer, please; the number alone is enough.

compound=Cc1ccnc(NS(=O)(=O)c2ccc(N)cc2)n1 reported_metric=growth data_value=0.21
compound="C[C@@H]1C[C@H]2[C@@H]3CCC4=CC(=O)C=C[C@]4(C)[C@@]3(Cl)[C@@H](O)C[C@]2(C)[C@@]1(OC(=O)c1ccco1)C(=O)CCl [Mometasone furoate]" reported_metric=growth data_value=0.297
compound="CC(=O)OCC1=C(C(=O)O)N2C(=O)[C@@H](NC(=O)Cc3cccs3)[C@H]2SC1 [Cephalothin sodium salt]" reported_metric=growth data_value=0.206

q: What value of growth has been reported for the following compound? CC(C)C(=O)Nc1ccc([N+](=O)[O-])c(C(F)(F)F)c1 [Flutamide]
a: 0.177

###

Tested on: E. coli TESEC Alr+ wild-type control
TEST_SUMMARY: growth (OD600 after 10 h); higher = more growth (less inhibition)
EXPERIMENTAL_SETUP: compound 0.1 mM; raw OD600 reference: median of DMSO wells 0.241, cell-free background 0.041
Structures can show the parent of a compound that is named as a salt.
REPORTED_METRIC: growth
No unit in the answer, please; the number alone is enough.

Use the examples below as a reference point.
molecule="C=C1C[C@H]2[C@@H]3C=C(C)C4=CC(=O)CC[C@]4(C)[C@H]3CC[C@]2(C)[C@@]1(OC(C)=O)C(C)=O [Melengestrol acetate]" test_target="E. coli TESEC Alr+ wild-type control" data_value=0.206
molecule="Nc1ccc(C(=O)O)c(O)c1 [4-aminosalicylic acid]" test_target="E. coli TESEC Alr+ wild-type control" data_value=0.247
molecule="CC(C)(C)NCC(O)c1ccc(O)c(CO)c1 (centres undefined) [Salbutamol]" test_target="E. coli TESEC Alr+ wild-type control" data_value=0.241
molecule="CCCN(CCC)C(=O)C(CCC(=O)O)NC(=O)c1ccccc1 (centres undefined) [Proglumide]" test_target="E. coli TESEC Alr+ wild-type control" data_value=0.255

q: What value of growth has been reported for the following molecule? COC(=O)[C@H](c1ccccc1Cl)N1CCc2sccc2C1 [Clopidogrel]
a: 0.0938

q: And the next one, COCCCC/C(=N\OCCN)c1ccc(C(F)(F)F)cc1 [Fluvoxamine maleate] ?
a: 0.225

q: And the next one, Nc1c(Br)cc(Br)cc1CN[C@H]1CC[C@H](O)CC1 [Ambroxol hydrochloride] ?
a: 0.202

###

System: E. coli TESEC Mtb DapB
TEST_SUMMARY: growth (OD600 after 10 h); higher = more growth (less inhibition)
EXPERIMENTAL_SETUP: arabinose induction (level): High; compound 0.1 mM; raw OD600 reference: median of DMSO wells […], cell-free background 0.041
Counter-ions that a name gives are not always drawn.
REPORTED_METRIC: growth
No unit in the answer, please; the number alone is enough.

molecule="NC12CC3CC(CC(C3)C1)C2 [Adamantamine fumarate]" data_value=0.2
molecule="CC(C)n1c(/C=C/C(O)CC(O)CC(=O)O)c(-c2ccc(F)cc2)c2ccccc21 (centres undefined) [Fluvastatin sodium salt]" data_value=0.17
molecule="O=P(O)(O)C(Cl)(Cl)P(=O)(O)O [Clodronate]" data_value=0.223
molecule="O=C1c2cccc(O)c2C(=O)c2c(O)cccc21 [1,8-Dihydroxyanthraquinone]" data_value=0.189
molecule="CCCCC1C(=O)N(c2ccccc2)N(c2ccc(O)cc2)C1=O (centres undefined) [Oxyphenbutazone]" data_value=0.204
molecule="CC(C)NCC(O)COc1cccc2[nH]ccc12 (centres undefined) [Pindolol]" data_value=0.201
molecule="N=C(N)N/N=C/c1c(Cl)cccc1Cl [Guanabenz acetate]" data_value=0.194
molecule="CCCOc1ccccc1-c1nc2[nH]nnc2c(=O)[nH]1 [Zaprinast]" data_value=0.191

q: What value of growth has been reported for the following molecule? CN1Cc2c(N)cccc2C(c2ccccc2)C1 (centres undefined) [Nomifensine maleate]
a: 0.175

q: And the next one, CCCNC(C)C(=O)Nc1c(C)csc1C(=O)OC (centres undefined) [Articaine hydrochloride] ?
a: 0.205

q: And the next one, CC(CN(C)C)CN1c2ccccc2Sc2ccccc21 (centres undefined) [Trimeprazine tartrate] ?
a: 0.192

q: And the next one, CCc1ccc(CCOc2ccc(CC3SC(=O)NC3=O)cc2)nc1 (centres undefined) [Pioglitazone] ?
a: 0.191

q: And the next one, CC(CN(C)C)CN1c2ccccc2CCc2ccccc21 (centres undefined) [Trimipramine maleate salt] ?
a: 0.195

###

Tested on: E. coli TESEC Mtb Alr
TEST_SUMMARY: growth (OD600 after 10 h); higher = more growth (less inhibition)
EXPERIMENTAL_SETUP: arabinose 100 nM; compound 0.1 mM; raw OD600 reference: median of DMSO wells 0.413, cell-free background 0.052
Where a name gives a salt, the structure may show the parent alone.
REPORTED_METRIC: growth
No unit in the answer, please; the number alone is enough.

q: What value of growth has been reported for the following compound? CC(C)Cn1cnc2c(N)nc3ccccc3c21 [Imiquimod]
a: 0.411

q: And the next one, CCN(CC)CCNC(=O)c1cc(Cl)c(N)cc1OC [Metoclopramide monohydrochloride] ?
a: 0.409

q: And the next one, Nc1nc(NC2CC2)c2ncn([C@H]3C=C[C@@H](CO)C3)c2n1 [Abacavir Sulfate] ?
a: 0.408

q: And the next one, Nc1ccc(S(=O)(=O)c2ccc(N)cc2)cc1 [Dapsone] ?
a: 0.422

q: And the next one, CC(C)(C)NC[C@@H](O)COc1cccc2c1CCCC2=O [(+) -Levobunolol hydrochloride] ?
a: 0.412

q: And the next one, c1cnc(N2CCN(Cc3ccc4c(c3)OCO4)CC2)nc1 [Piribedil hydrochloride] ?
a: 0.398

q: And the next one, Cc1ccc(-c2ncc(Cl)cc2-c2ccc(S(C)(=O)=O)cc2)cn1 [Etoricoxib] ?
a: 0.414

q: And the next one, Clc1ccc(CCC(Cn2ccnc2)Sc2c(Cl)cccc2Cl)cc1 (centres undefined) [Butoconazole nitrate] ?
a: 0.1

q: And the next one, Cc1noc(NS(=O)(=O)c2ccc(N)cc2)c1C [Sulfisoxazole] ?
a: 0.424

###

Tested on: E. coli TESEC Mtb Alr
TEST_SUMMARY: growth (OD600 after 10 h); higher = more growth (less inhibition)
EXPERIMENTAL_SETUP: arabinose 10000000 nM; compound 0.1 mM; raw OD600 reference: median of DMSO wells 0.146, cell-free background 0.041
Structures can show the parent of a compound that is named as a salt.
REPORTED_METRIC: growth
No unit in the answer, please; the number alone is enough.

Use the examples below as a reference point.
molecule="CN(C)CCCSC(=N)N [Dimaprit dihydrochloride]" data_value=0.131
molecule="C#C[C@]1(O)CC[C@H]2[C@@H]3[C@H](C)CC4=C(CCC(=O)C4)[C@H]3CC[C@@]21C [Tibolone]" data_value=0.148
molecule="Nc1nc2c(ncn2COC(CO)CO)c(=O)[nH]1 [Ganciclovir]" data_value=0.136

q: What is its growth for E. coli TESEC Mtb Alr? Entry: OCCN1CCN(CC/C=C2/c3ccccc3Sc3ccc(Cl)cc32)CC1 [Zuclopenthixol dihydrochloride]
a: 0.14

q: And the next one, COc1ccc([C@@H]2Sc3ccccc3N(CCN(C)C)C(=O)[C@@H]2OC(C)=O)cc1 [Diltiazem hydrochloride] ?
a: 0.139

q: And the next one, CC(C(=O)O)c1cccc(C(=O)c2ccccc2)c1 (stereo unspecified) [Ketoprofen] ?
a: 0.145

q: And the next one, C[C@@H](O[C@H]1OCCN(Cc2n[nH]c(=O)[nH]2)[C@H]1c1ccc(F)cc1)c1cc(C(F)(F)F)cc(C(F)(F)F)c1 [Aprepitant] ?
a: 0.0777

q: And the next one, CNC(=C[N+](=O)[O-])NCCSCc1csc(CN(C)C)n1 [Nizatidine] ?
a: 0.14

q: And the next one, Cn1cnc2c1c(=O)[nH]c(=O)n2C [Theobromine] ?
a: 0.155

q: And the next one, CC(C[N+](C)(C)C)OC(N)=O (stereo unspecified) [Bethanechol chloride] ?
a: 0.139

q: And the next one, CN1C(=O)CC(c2ccccc2)C1=O (stereo unspecified) [Phensuximide] ?
a: 0.138

q: And the next one, COc1ccc2[nH]cc(CCNC(C)=O)c2c1 [Melatonin] ?
a: 0.141

q: And the next one, CCN(CC)Cc1cc(Nc2ccnc3cc(Cl)ccc23)ccc1O [Amodiaquin dihydrochloride dihydrate] ?
a: 0.203

q: And the next one, CC(C)[N+](C)(CCOC(=O)C1c2ccccc2Oc2ccccc21)C(C)C [Propantheline bromide] ?
a: 0.132

q: And the next one, CC(=O)[C@H]1CC[C@H]2[C@@H]3C=CC4=CC(=O)CC[C@@]4(C)[C@@H]3CC[C@]12C [Dydrogesterone] ?
a: 0.0751

q: And the next one, COc1cc([C@@H]2c3cc4c(cc3[C@@H](O[C@@H]3O[C@@H]5CO[C@@H](C)O[C@H]5[C@H](O)[C@H]3O)[C@H]3COC(=O)[C@H]23)OCO4)cc(OC)c1O [Etoposide] ?
a: 0.111

q: And the next one, COC1=CC(=O)C[C@@H](C)[C@]12Oc1c(Cl)c(OC)cc(OC)c1C2=O [Griseofulvin] ?
a: 0.135

q: And the next one, CCOc1ccccc1OCC1CNCCO1 (stereo unspecified) [Viloxazine hydrochloride] ?
a: 0.135

q: And the next one, OC(Cn1cncn1)(Cn1cncn1)c1ccc(F)cc1F [Fluconazole] ?
a: 0.14

From: the supplement of paper PMC9262897
